Test system: KM12 colon
Assay: NCI-60 one-dose screen, 48 h
Details: 10 µM unless noted
This is part of a sample that, as a whole, favours compounds with a hit. Of some 83,000 tested, about 20% had one in any assay. Active and inactive are the calls of the source. How the source made its calls: active means growth percent below 10; inactive means the rest.
Classes used: yes (1) for active, no (0) for inactive

1. O=S1SC(c2ccccc2)=NN1c1cc(F)cc(F)c1 (centres undefined)
no (0)
2. Cc1[nH]c(C(=O)Nc2ccccc2OCc2cccc(C(=O)NCCN)c2)cc1Cl
no (0)
3. C#CCN(C)CCCOc1ccc(NCc2ccc(/C=C/C(=O)NO)cc2)cc1Cl
yes (1)
4. CCNC(=O)Oc1ccc(/C(=C(/C)c2ccc(OC)cc2)c2ccc(OCCN3CCCCCC3)cc2)cc1
no (0)
5. CCOC(=O)c1c(NC(=O)c2ccc(C(F)(F)F)cc2)sc2c3c(ccc12)OCN(C)C3
no (0)
6. CC(O)c1cccc(/C(N)=N/C(N)=N/c2nc3ccccc3s2)c1 (centres undefined)
no (0)
7. O=C(CCCCCCN1CC(=O)N2[C@@H](c3ccccc3Br)c3[nH]c4ccccc4c3C[C@H]2C1=O)NO
no (0)
8. Brc1ccc(-c2cc(-c3ccc4c(c3)OC=CO4)n[nH]2)s1
no (0)
9. CS(=O)(=O)c1ccc(/C(=N/N=C(N)N)c2ccc(F)cc2)cc1
no (0)
10. Cn1ncc2c(C(=O)c3ccc(F)cc3)nc(C(C)(C)C)nc21
no (0)
11. C#CCOc1cccc(-c2nc(N)nc(Nc3ccccc3SSc3ccccc3Nc3nc(N)nc(-c4cccc(OCC#C)c4)n3)n2)c1
yes (1)
12. C/C(=C(/C)C1CC1CCNC1CCC(NC(=O)OC(C)(C)C)CC1)c1ccccc1 (centres undefined)
no (0)
13. COc1cccc2c1[C@H](OC)[C@]13O[C@@]1(C2=O)[C@H](O)[C@H](C)[C@@](O)(C(=O)[C@@H]1O[C@H]1C)[C@@H]3O
yes (1)
14. C=C1CCc2nc(SCC(=O)O)ccc2N1
no (0)
15. Cc1ccc(NC2=C(Cl)C(=O)c3nc(C)ccc3C2=O)c(C)c1
no (0)
16. CCc1cc2c(cc1Cl)nc1c(=O)[nH]c(=O)nc-1n2CCOCC(C)(C)C
no (0)
17. CCn1c2ccc(/C=N/N(C)S(=O)(=O)CCN(C)C)cc2c2cc(/C=N/N(C)S(=O)(=O)CCN(C)C)ccc21
no (0)
18. N#Cc1c(-c2cccs2)cc(-c2cnccn2)nc1SCC(=O)N/N=C/c1ccncc1
no (0)
19. CN1CCN(c2ccc(Nc3nc(NCCNS(=O)(=O)c4ccc5ccccc5c4)c4sccc4n3)cc2)CC1
no (0)

###

System: 786-0 renal
Test: NCI-60 one-dose screen, 48 h
Settings: 10 µM unless noted
Description: Cells are grown in 96 well plates and exposed to the test compound for 48 hours. Compounds are tested at a single concentration, which is 10^-5 M for most compounds. The reported endpoint is percent growth (GI% or GIPRCNT), where numbers from 0 - 100% represent growth inhibition, and numbers from -100% - 0 represent cell death. For example, a value of 40 represents 60% growth inhibition. A value of 0 means no net growth occurred over the course of the experiment. […]
Compounds without any hit were thinned out: in the full panel of roughly 83,000, 20% have a hit. Calls of active or inactive are those of the source. The calls were made as follows: active = growth percent below 10; inactive = the rest.
Outcomes: active, inactive

1. Cc1ccc2c(n1)C(=O)C(Cl)=C(Nc1ccccc1C(=O)OC(C)(C)C)C2=O
active
2. C/C(=N\NC(N)=S)c1nnn(-c2ccc([N+](=O)[O-])cc2)c1C
inactive
3. Cc1ccc(CSC2=C(Cl)CN(c3ccc(Cl)cc3)C2=O)cc1
inactive
4. CN1CC[C@@H]2[C@@]3(C)CC[C@H](O)C(C)(C)[C@@H]3CC[C@@]2(C)[C@]2(C)CC[C@@]3(CO)CCC(C)(C)C[C@@H]3C12 (stereo not given in full)
inactive
5. CCCCCCOC(=O)c1cc(-c2ccc(F)cc2)nc2ccccc12
inactive
